Provide the recorded Crabgrass, Large plant response rating for the entries that follow.
Test system: crabgrass, large
assay.info: Test A postemergence
Assay type: in vivo, Digitaria sanguinalis
experimental.setup: Postemergence, 500 g ai/ha; visual rating after approx. 10 days, 0 to 100 scale (0 no effect, 100 complete control)

What value of measured Crabgrass, Large plant response rating is listed for CCONC(=O)c1cc(CC)n(Cc2ccnc(C(F)(F)F)c2)n1 [Compound 77] ?
100

What value of measured Crabgrass, Large plant response rating is listed for CCc1cc(C(=O)Nc2ccc(F)cc2)nn1Oc1ccnc(C(F)(F)F)c1 [Compound 89] ?
0

What value of measured Crabgrass, Large plant response rating is listed for CCCc1cc(-c2ccc(C(F)(F)F)cc2)nn1Cc1ccnc(C(F)(F)F)c1 [Compound 113] ?
40

What value of measured Crabgrass, Large plant response rating is listed for CCCNC(=O)c1cc(CC)n(Cc2cc(C(F)(F)F)nn2CC)n1 [Compound 117] ?
80

What value of measured Crabgrass, Large plant response rating is listed for CCONC(=O)c1cc(CC)n(Cc2cccc(OC(F)(F)F)c2)n1 [Compound 72] ?
90

What value of measured Crabgrass, Large plant response rating is listed for Cc1cc(C(=O)Nc2ccc(F)cc2)nn1Oc1ccnc(C(F)(F)F)c1 [Compound 90] ?
0

What value of measured Crabgrass, Large plant response rating is listed for CCCNC(=O)c1cc(CC)n(Oc2ccnc(C(F)(F)F)c2)n1 [Compound 82] ?
60

What value of measured Crabgrass, Large plant response rating is listed for Cc1cc(C(=O)NCC(F)(F)F)nn1Cc1cc(F)cc(C(F)(F)F)c1 [Compound 13] ?
30

What value of measured Crabgrass, Large plant response rating is listed for CCCCNC(=O)c1cc(C)n(Oc2ccnc(C(F)(F)F)c2)n1 [Compound 85] ?
20
